- procedure_summary: Pharmacokinetic (PK) study in rats
- Assay type: in vivo
- condition_description: rat, plasma; male SD rats, intravenous, 1 mg/kg
- Description: The pharmacokinetic profile of the compounds of Examples was studied by intravenous administration of the compounds of Examples to male SD rats. The dose for IV administration was 1 mg/kg, and the solvent was 5% DMSO: 5% solutol: 90% physiological saline. After IV administration, blood samples were collected at different time points for PK study. Plasma were treated by protein precipitation and then analyzed by LC-MS/MS. […]
observation_type: AUC(0-t) (ng·h/mL)

- molecular_string: "CC(C)C[C@@H](NC(=O)[C@@H](Cc1ccccc1)NC(=O)[C@H](N)Cc1ccccc1)C(=O)N[C@H](CCCCNCCN)C(=O)N1CCC(N)(C(=O)O)CC1"
  result_units: "ng·h/mL"
  recorded_result: 1790
- molecular_string: "CC(C)C[C@@H](NC(=O)[C@@H](Cc1ccccc1)NC(=O)[C@H](N)Cc1ccccc1)C(=O)N[C@H](CCCCNCCCN)C(=O)N1CCC(N)(C(=O)O)CC1"
  result_units: "ng·h/mL"
  recorded_result: 2410
- molecular_string: "COCCOCCOCCOCCOCCOCCOCCNCCCC[C@@H](NC(=O)[C@@H](CC(C)C)NC(=O)[C@@H](Cc1ccccc1)NC(=O)[C@H](N)Cc1ccccc1)C(=O)N1CCC(N)(C(=O)O)CC1"
  result_units: "ng·h/mL"
  recorded_result: 2180
- molecular_string: "COCCOCCNCCCC[C@@H](NC(=O)[C@@H](CC(C)C)NC(=O)[C@@H](Cc1ccccc1)NC(=O)[C@H](N)Cc1ccccc1)C(=O)N1CCC(N)(C(=O)O)CC1"
  result_units: "ng·h/mL"
  recorded_result: 783

----------
- measured_on: KOR (Homo sapiens)
- procedure_summary: Opioid receptor selectivity, radioligand competition binding (3H-diprenophrine) on cell membranes
- condition_description: Ki=IC50/(1+[radioligand]/Kd); read-out: KOR Ki

- molecular_string: "CC(C)C[C@@H](NC(=O)[C@@H](Cc1ccccc1)NC(=O)[C@H](N)Cc1ccccc1)C(=O)N[C@H](CCCCNCCCN)C(=O)N1CCC(N)(C(=O)O)CC1"
  Ki: "< 0.01 nM"
- molecular_string: "COCCOCCNCCCC[C@@H](NC(=O)[C@@H](CC(C)C)NC(=O)[C@@H](Cc1ccccc1)NC(=O)[C@H](N)Cc1ccccc1)C(=O)N1CCC(N)(C(=O)O)CC1"
  Ki: "0.02 nM"
- molecular_string: "CC(C)C[C@@H](NC(=O)[C@@H](Cc1ccccc1)NC(=O)[C@H](N)Cc1ccccc1)C(=O)N[C@H](CCCCNCCN)C(=O)N1CCC(N)(C(=O)O)CC1"
  Ki: "< 0.01 nM"

----------
- measured_on: human κ-opioid receptor (KOR) (Homo sapiens)
- Construct: expressed in transfected cells
- procedure_summary: κ-opioid receptor agonistic effect (inhibition of adenylate cyclase, cAMP assay)
- Format: cell-based
- condition_description: CHO cells stably expressing human KOR; NKH477-stimulated cAMP; four-parameter fit; read-out: ED50 (the source's name)
pEC50: −log10 of the molar value.
# maps each entry to its pEC50
observation_type: pEC50

- molecular_string: "CC(C)C[C@@H](NC(=O)[C@@H](Cc1ccccc1)NC(=O)[C@H](N)Cc1ccccc1)C(=O)N[C@H](CCCCNCCN)C(=O)N1CCC(N)(C(=O)O)CC1"
  recorded_result: 10.22
- molecular_string: "CC(C)C[C@@H](NC(=O)[C@@H](Cc1ccccc1)NC(=O)[C@H](N)Cc1ccccc1)C(=O)N[C@H](CCCCNCCCN)C(=O)N1CCC(N)(C(=O)O)CC1"
  recorded_result: 10.15
- molecular_string: "CC(C)C[C@@H](NC(=O)[C@@H](Cc1ccccc1)NC(=O)[C@H](N)Cc1ccccc1)C(=O)N[C@H](CCCCNC[C@H](O)CO)C(=O)N1CCC(N)(C(=O)O)CC1"
  recorded_result: 10.10
- molecular_string: "COCCOCCN(CCCC[C@@H](NC(=O)[C@@H](CC(C)C)NC(=O)[C@@H](Cc1ccccc1)NC(=O)[C@H](N)Cc1ccccc1)C(=O)N1CCC(N)(C(=O)O)CC1)CCOCCOC"
  recorded_result: 10.22
- molecular_string: "CC(C)C[C@@H](NC(=O)[C@@H](Cc1ccccc1)NC(=O)[C@H](N)Cc1ccccc1)C(=O)N[C@H](CCCCNC(CO)CO)C(=O)N1CCC(N)(C(=O)O)CC1"
  recorded_result: 10.52
- molecular_string: "CC(C)C[C@@H](NC(=O)[C@@H](Cc1ccccc1)NC(=O)[C@H](N)Cc1ccccc1)C(=O)N[C@H](CCCCNC[C@@H](O)CO)C(=O)N1CCC(N)(C(=O)O)CC1"
  recorded_result: 10.05
- molecular_string: "COCCOCCNCCCC[C@@H](NC(=O)[C@@H](CC(C)C)NC(=O)[C@@H](Cc1ccccc1)NC(=O)[C@H](N)Cc1ccccc1)C(=O)N1CCC(N)(C(=O)O)CC1"
  recorded_result: 10.30
- molecular_string: "CC(C)C[C@@H](NC(=O)[C@@H](Cc1ccccc1)NC(=O)[C@H](N)Cc1ccccc1)C(=O)N[C@H](CCCCNCC(=O)O)C(=O)N1CCC(N)(C(=O)O)CC1"
  recorded_result: 9.38
- molecular_string: "COCCOCCNCCCC[C@@H](NC(=O)[C@@H](CC(C)C)NC(=O)[C@@H](Cc1ccccc1)NC(=O)[C@H](N)Cc1ccccc1)C(=O)N1CCC2(CC1)NC(=O)NC2=O"
  recorded_result: 10.80
- molecular_string: "COCCOCCNCCCC[C@@H](NC(=O)[C@@H](CC(C)C)NC(=O)[C@@H](Cc1ccccc1)NC(=O)[C@H](N)Cc1ccccc1)C(=O)N1C2CC1CN(CC(=O)O)C2"
  recorded_result: 11.30
